tested on: A/WSN/33; experiment: microbe, parasite or virus in culture; assay type: cell-based, influenza virus; conditions: unidentified influenza virus, WSN, A549, 24 h, read-out: WSN IC50, A549 cells, A/WSN/33 MOI 0.01, 24 h post infection, NP-positive cells
What pIC50 was measured for each of the following?
Please report pIC50 as the negative decimal logarithm of the molar concentration, giving only the number.

Write down pIC50 measured for item O=C(CSc1nc2cc(F)ccc2[nH]1)Nc1ccc(Br)cn1
4.79

Return value of pIC50 for input COc1ccc2[nH]c(SCC(=O)Nc3ccc(Br)cn3)nc2c1 , no commentary.
4.33

Input O=C(CSc1nc2ccccc2[nH]1)Nc1ccc(Br)cn1 , output reported pIC50.
5.50

Return pIC50 (reported value) for this compound: Cn1c(SCC(=O)Nc2ccc(Br)cn2)nc2ccccc21
5.72

Give recorded pIC50. COc1ccc(NC(=O)CSc2nc3ccccc3[nH]2)nc1
4.76

State its pIC50: CCn1c(SCC(=O)Nc2ccc(Br)cn2)nc2ccccc21
4.42

Respond only with pIC50 recorded for O=C(C[S+]([O-])c1nc2ccccc2[nH]1)Nc1ccc(Br)cn1 (centres unmarked)
4.92
